In this section we review reported Specificity values for a set of compounds.
Tested on: L. donovani intracellular amastigotes
PROTOCOL: Intracellular amastigote high-throughput image-based assay in infected THP-1 macrophages
Assay type: cell-based, Leishmania donovani
STATED_CONDITIONS: ratio between promastigote GI50 and intracellular amastigote GI50; >2 more active against intracellular amastigote, <0.4 more active against promastigotes
PARAMETER_MEASURED: Specificity

1. CCN(CC)c1ccc(C(=C2C=CC(=[N+](CC)CC)C=C2)c2ccccc2)cc1 :: 0.02
2. CCN(CCCCOC(=O)c1ccc(OC)c(OC)c1)C(C)Cc1ccc(OC)cc1 (centres unmarked) :: 0.81
3. Clc1ccc(CO/N=C(\Cn2ccnc2)c2ccc(Cl)cc2Cl)c(Cl)c1 :: 0.40
4. CN(C)C(=S)SSC(=S)N(C)C :: 0.44
5. COc1cc2nc(N3CCN(C(=O)C4COc5ccccc5O4)CC3)nc(N)c2cc1OC (centres unmarked) :: 1.69
6. CC[C@@]1(O)C[C@H](O[C@H]2C[C@H](N(C)C)[C@H](O[C@H]3C[C@H](O)[C@H](O[C@H]4CCC(=O)[C@H](C)O4)[C@H](C)O3)[C@H](C)O2)c2c(cc3c(c2O)C(=O)c2c(O)cccc2C3=O)[C@H]1C(=O)OC :: 1.57
7. CCCCCC[C@H]1C(=O)O[C@H](C)[C@H](NC(=O)c2cccc(NC=O)c2O)C(=O)O[C@@H](C)[C@@H]1OC(=O)CC(C)C [Antimycin A] :: 0.05
8. CN1C[C@H](CNC(=O)OCc2ccccc2)C[C@@H]2c3cccc4c3c(cn4C)C[C@H]21 :: 19.17
9. C[C@@H]1[C@H](O)[C@@H](C)/C=C/C=C/C=C/C=C/C=C/C=C/C=C/[C@H](O[C@@H]2O[C@H](C)[C@@H](O)[C@H](N)[C@@H]2O)C[C@@H]2O[C@](O)(C[C@@H](O)C[C@@H](O)[C@H](O)CC[C@@H](O)C[C@@H](O)CC(=O)O[C@H]1C)C[C@H](O)[C@H]2C(=O)O :: 1.43
10. CC(=O)OC[C@H]1O[C@@H]([S-])[C@H](OC(C)=O)[C@@H](OC(C)=O)[C@@H]1OC(C)=O.CCP(CC)CC.[Au+] :: 0.51
11. CCOC(=O)C1=C(COCCN)NC(C)=C(C(=O)OC)C1c1ccccc1Cl (centres unmarked) :: 0.31
12. COc1ccccc1OCCNCC(O)COc1cccc2[nH]c3ccccc3c12 (centres unmarked) :: 2.01
13. [H]/N=C(\N/C(=N/[H])NCCCCCCNC(=N)NC(=N)Nc1ccc(Cl)cc1)Nc1ccc(Cl)cc1 :: 1.56
14. Clc1ccccc1C(c1ccccc1)(c1ccccc1)n1ccnc1 :: 11.92

###

Test system: L. donovani intracellular amastigotes
PROTOCOL: Intracellular amastigote high-throughput image-based assay in infected THP-1 macrophages
Type: cell-based, Leishmania donovani
STATED_CONDITIONS: ratio between promastigote GI50 and intracellular amastigote GI50; >2 more active against intracellular amastigote, <0.4 more active against promastigotes
PARAMETER_MEASURED: Specificity

1) CCOc1ccccc1OCCN[C@H](C)Cc1ccc(OC)c(S(N)(=O)=O)c1 [Tamsulosin] :: 3.17
2) Cc1cc(C2CCCCC2)n(O)c(=O)c1 [Ciclopirox] :: 0.69
3) Clc1ccc(COC(Cn2ccnc2)c2ccc(Cl)cc2Cl)c(Cl)c1 (stereo not shown) [Miconazole] :: 0.48
4) Clc1cc(Cl)c(OCC#CI)cc1Cl [Haloprogin] :: 0.17
5) C=C1C(=O)O[C@H]2[C@H]1CC/C(C)=C/CC[C@@]1(C)O[C@@H]21 [Parthenolide] :: 0.31
6) N=C(N)c1ccc(OCCCCCOc2ccc(C(=N)N)cc2)cc1 [Pentamidine Isethionate] :: 0.17
7) C[C@@H]1C[C@@H]([C@H](O)CC2CC(=O)NC(=O)C2)C(=O)[C@@H](C)C1 [Cycloheximide] :: 2.55

###

Measured Selectivity of individual entries
Tested on: THP-1
PROTOCOL: Host cell toxicity: THP-1 host nuclei counts in the image-based assay
STATED_CONDITIONS: ratio between parasite GI50 and THP-1 GI50
Description: Sterile, black, 96-well, clear bottom plates (Greiner Bio-One) were seeded with exponentially growing THP-1 (5×10^5cells/ml). […] The intensity of parasite nucleus was too low to be detected with a 20X objective. […] Host cell nuclei and parasite kinetoplasts were counted and the ratio of parasites DNA to host nuclei was selected as the measurement output. […]
PARAMETER_MEASURED: Selectivity

1) COC(=O)C[C@](O)(CCC(C)(C)O)C(=O)O[C@@H]1C(OC)=C[C@]23CCCN2CCc2cc4c(cc2[C@H]13)OCO4 :: 0.02
2) C[C@@H]1[C@H](O)[C@@H](C)/C=C/C=C/C=C/C=C/C=C/C=C/C=C/[C@H](O[C@@H]2O[C@H](C)[C@@H](O)[C@H](N)[C@@H]2O)C[C@@H]2O[C@](O)(C[C@@H](O)C[C@@H](O)[C@H](O)CC[C@@H](O)C[C@@H](O)CC(=O)O[C@H]1C)C[C@H](O)[C@H]2C(=O)O :: 44.52
3) C[C@@H]1CC[C@@]2(OC1)O[C@H]1[C@@H](O)[C@H]3[C@@H]4CC[C@H]5C[C@@H](O[C@@H]6O[C@H](CO)[C@H](O[C@@H]7O[C@H](CO)[C@@H](O)[C@H](O[C@@H]8OC[C@@H](O)[C@H](O)[C@H]8O)[C@H]7O[C@@H]7O[C@H](CO)[C@H](O)[C@H](O[C@@H]8O[C@H](CO)[C@@H](O)[C@H](O)[C@H]8O)[C@H]7O)[C@H](O)[C@H]6O)[C@H](O)C[C@]5(C)[C@H]4CC[C@]3(C)[C@H]1[C@@H]2C :: 3.075
4) Clc1ccccc1C(c1ccccc1)(c1ccccc1)n1ccnc1 :: 15.32

###

System: THP-1
PROTOCOL: Host cell toxicity: THP-1 host nuclei counts in the image-based assay
STATED_CONDITIONS: ratio between parasite GI50 and THP-1 GI50
Counter-ions that a name gives are not always drawn.
Overview of reported Selectivity across a group of molecules:
PARAMETER_MEASURED: Selectivity

1) O=C(Nc1ccc(Cl)c(Cl)c1)c1cc(Cl)cc(Cl)c1O [3,3′,4′,5-tetrachlorosalicylanilide] :: 0.22
2) N=C(N)c1ccc(OCCCCCOc2ccc(C(=N)N)cc2)cc1 [Pentamidine Isethionate] :: 29.49
3) CCN(CC)c1ccc(C(=C2C=CC(=[N+](CC)CC)C=C2)c2ccccc2)cc1 :: 15.88
4) CC/C(=C(\c1ccccc1)c1ccc(OCCN(C)C)cc1)c1ccccc1 [Tamoxifen Citrate] :: 1.61
5) CCC(c1ccc(OCCN(CC)CC)cc1)C(CC)c1ccc(OCCN(CC)CC)cc1 (stereo not shown) :: 4.36
6) CC[C@@]1(O)C[C@H](O[C@H]2C[C@H](N(C)C)[C@H](O[C@H]3C[C@H](O)[C@H](O[C@H]4CCC(=O)[C@H](C)O4)[C@H](C)O3)[C@H](C)O2)c2c(cc3c(c2O)C(=O)c2c(O)cccc2C3=O)[C@H]1C(=O)OC :: 5
7) Cc1ccc2c(Cl)cc(Cl)c(O)c2n1 :: 7.14

###

System: L. donovani intracellular amastigotes
PROTOCOL: Intracellular amastigote high-throughput image-based assay in infected THP-1 macrophages
Format: cell-based, Leishmania donovani
STATED_CONDITIONS: Leishmania donovani, THP-1, 72 h, L. donovani in THP-1, 72 h, parasites per host cell; read-out: GI50 Intracellular amastigote
Method: Sterile, black, 96-well, clear bottom plates (Greiner Bio-One) were seeded with exponentially growing THP-1 (5×10^5cells/ml). […] The intensity of parasite nucleus was too low to be detected with a 20X objective. […] Host cell nuclei and parasite kinetoplasts were counted and the ratio of parasites DNA to host nuclei was selected as the measurement output. […]
// reported GI50 for each item listed
PARAMETER_MEASURED: GI50

1. CCOc1ccccc1OCCN[C@H](C)Cc1ccc(OC)c(S(N)(=O)=O)c1 [Tamsulosin] :: 6.3 µM
2. COC(=O)C1=C(C)NC(C)=C(C(=O)OCC(C)C)C1c1ccccc1[N+](=O)[O-] (stereo not shown) [Nisoldipine] :: 32.2 µM
3. Cc1ccc2c(Cl)cc(Cl)c(O)c2n1 [chlorquinaldol] :: 5.5 µM
4. COc1ccccc1OCCNCC(O)COc1cccc2[nH]c3ccccc3c12 (stereo not shown) [Carvedilol] :: 6.16 µM
5. COCc1c(C(C)C)nc(C(C)C)c(/C=C/[C@@H](O)C[C@@H](O)CC(=O)O)c1-c1ccc(F)cc1 [Cerivastatin] :: > 50 µM
6. CN1C[C@H](CNC(=O)OCc2ccccc2)C[C@@H]2c3cccc4c3c(cn4C)C[C@H]21 [Metergoline] :: 0.78 µM
7. Clc1ccccc1C(c1ccccc1)(c1ccccc1)n1ccnc1 [Clotrimazole] :: 1.08 µM
8. Clc1cc(Cl)c(OCC#CI)cc1Cl [Haloprogin] :: 6 µM
9. CC[C@H]1CN2CCc3cc(OC)c(OC)cc3[C@@H]2C[C@@H]1C[C@H]1NCCc2cc(OC)c(OC)cc21 [Emetine] :: 0.082 µM
10. CCOC(=O)C1=C(COCCN)NC(C)=C(C(=O)OC)C1c1ccccc1Cl (stereo not shown) [Amlodipine] :: 9.78 µM
